All values here come from ChEMBL document CHEMBL5303304.

Quick reference: Growth Rate of the listed items.
Test system: U2OS
ASSAY_EXPLANATION: Incucyte cell viability with U2OS; further: unitless GR value; below 1 slowed growth and below 0 cell loss
Format: toxicity, cell-based
EXPERIMENTAL_PARAMETERS: human, 12 h, 10 µM, compound concentration 10 uM, replicate number 1
// return just the number, without any unit appended

Completed entries (count: 4):
| MOLECULE | Growth Rate |
| --- | --- |
| CS(=O)(=O)NC(=O)CCC/C=C\C[C@H]1C(=O)C[C@@H](O)[C@@H]1/C=C/[C@@H](O)COc1ccccc1 [SULPROSTONE] | 0.97 |
| CC(C)CNc1nc(N2CCN(CC3CCCOC3)CC2)ncc1C(=O)NCc1ccccc1 (stereo not given) | 0.83 |
| NC(=O)c1cc2c(-c3ccc(C(=O)NCc4ccnc(Cl)c4)s3)cccc2s1 | 0.05 |
| COc1cc2ncnc(Nc3cccc(O)c3)c2cc1OC | 0.83 |

[in] # query: Growth Rate of entry CC[C@H]1[C@@H](O)[C@@H]2[C@H](CC[C@]3(C)[C@@H]([C@H](C)CCC(=O)O)CC[C@@H]23)[C@@]2(C)CC[C@@H](O)C[C@@H]12 [OBETICHOLIC ACID]
[out] 0.87

====

Below, each of the compounds is paired with its reported Growth Rate value.
Test system: Fibroblast
ASSAY_EXPLANATION: Incucyte cell viability with human fibroblast; further: unitless GR value; below 1 slowed growth and below 0 cell loss
Type: toxicity, cell-based
EXPERIMENTAL_PARAMETERS: 6 h, 10 µM, compound concentration 10 uM, replicate number 1
Answer with a bare number; do not write a unit.

Known results for compounds:
| COMPOUND | MEASUREMENT |
| --- | --- |
| O=C([O-])c1cc2cc(Cc3cccnc3)ccc2o1.[Na+] | 0.42 |
| COc1cc(-c2cn(C)c(=O)c3cnccc23)c(OC)cc1CN(C)C | 0.79 |
| O=C(CCCCCCc1ccccc1)c1ncc(-c2ccccn2)o1 | 0.4 |
| O=C(NCCN1CCOCC1)c1ccc2nn(CCOc3ccc(Cl)cc3)cc2c1 | 0.63 |
| Cc1cc2c(-c3ccco3)cnc(N[C@H]3CCN(C)C[C@@H]3C(=O)NC3CCCCC3)c2[nH]c1=O | 0.66 |

[in] For Cc1nn(-c2nc3ccc(Cl)c(Cl)c3[nH]2)c(O)c1C1OC(=O)c2ccccc21 (centres undefined) , what is its reported Growth Rate?
[out] 0.95

[in] Follow-up entry: "CCCCCCCN(CCc1ccc(SC(C)(C)C(=O)O)cc1)C(=O)Nc1ccc(F)cc1F"
[out] 0.88

[in] Next: C[C@@H](Oc1cc(-n2cnc3ccc(OC4CCN(C)CC4)cc32)sc1C(N)=O)c1ccccc1Cl [GSK-579289A]
[out] 0.99

[in] Same read-out for "Cc1nc2ccc(Oc3ccc(F)cc3)cc2c(=O)n1C[C@H]1CCCN(C(C)C)C1.Cl" ?
[out] 0.24

====

System: HEK-293T
ASSAY_EXPLANATION: Incucyte cell viability with HEK293T; further: unitless GR value; below 1 slowed growth and below 0 cell loss
Type: toxicity, cell-based
EXPERIMENTAL_PARAMETERS: human, 0 h, 10 µM, compound concentration 10 uM, replicate number 2
The threshold is inclusive: Growth Rate of exactly 0.3 counts as satisfied; values below receive not satisfied.

| MOLECULE | CLASS_ASSIGNMENT |
| --- | --- |
| CC(C)Oc1ccc(F)c(-c2cnc(N)c(C(=O)Nc3cnccc3N3CCC[C@@H](C(=O)O)C3)n2)c1 | satisfied |
| Cc1nnc2n1-c1sc(CCC(=O)N3CCOCC3)cc1C(c1ccccc1Cl)=NC2 [APAFANT] | not satisfied |
| N#Cc1ccc(COc2ccc(Br)cc2CNCCO)cn1.O=CO | satisfied |

[in] In plain terms: is recorded Growth Rate at least 0.3 for O=C(O)Cc1cc(I)c(Oc2ccc(O)c(I)c2)c(I)c1 [TIRATRICOL] ?
[out] not satisfied

[in] Ok, now C[C@H](C[C@H](N)C(=O)O)C(=O)O [2S,4R-4-METHYLGLUTAMATE]
[out] satisfied

[in] "CN1CCN(c2ccc(/C=C(\C#N)c3ccccc3Br)cc2)CC1.Cl.Cl" ?
[out] not satisfied

[in] Ok, now "CC[C@@H](C(=O)OC)n1c(=O)c2ccccc2n(Cc2cn(C)c3cccc(C)c23)c1=O"
[out] not satisfied

[in] Also C[S+](C)[O-] [DIMETHYL SULFOXIDE] ?
[out] not satisfied

[in] Next record, please: "Cl.Cl.Nc1nccc(-c2c(-c3ccc(F)cc3)ncn2C2CCCCC2)n1"
[out] satisfied

[in] Another molecule to check: "O=C(Nc1cc(-c2cn[nH]c2)ccc1N1CCOCC1)c1ccc(-c2ccc3ncccc3c2)o1"
[out] satisfied

[in] What do we get for COc1nc2ccc([C@@](O)(c3ccccc3)C3CCN(C(C)=O)CC3)cc2c(Cl)c1Cc1ccc(-n2cccn2)cc1 [JNJ-54119936] ?
[out] not satisfied

[in] Same for "CC(C)c1nc2c(c3c1[C@H](c1ccc(C(F)(F)F)cc1)OC31CCOCC1)[C@H](O)CC(C)(C)C2"
[out] not satisfied

[in] What do you get for "O=C(Nc1snnc1C(=O)Nc1ccc(N2CCCC2)cc1)c1cncc(C(F)(F)F)c1" ?
[out] satisfied

[in] What do we get for "Cn1ncc(NC(=O)c2nc(-c3c(F)cccc3F)sc2N)c1N1CC[C@@H](N)[C@H](F)CC1" ?
[out] not satisfied

[in] Input CC#CCC(C)[C@H](O)/C=C/[C@@H]1[C@H]2C/C(=C/CCCC(=O)O)C[C@H]2C[C@H]1O (stereo partly drawn) [ILOPROST]
[out] satisfied

[in] Next: Cn1nc(C(=O)NCc2ccc(C(=O)O)cc2)cc1-c1ccc2[nH]ccc2c1 [BI 4395]
[out] satisfied

[in] Likewise for "COc1ccc(N(C(=O)Nc2c(C)cccc2C)c2cc(Nc3ccc(N4CCN(C)CC4)cc3)ncn2)c(OC)c1" ?
[out] satisfied

====

Test system: HEK-293T
ASSAY_EXPLANATION: Incucyte cell viability with HEK293T; further: unitless GR value; below 1 slowed growth and below 0 cell loss
Type: toxicity, cell-based
EXPERIMENTAL_PARAMETERS: human, 0 h, 10 µM, compound concentration 10 uM, replicate number 2
Class boundaries, taken from values of Growth Rate, are as follows: lo (below 0.1), mid (0.1 to below 0.5), hi (0.5 or more)

Here's what some known entries look like.
| COMPOUND | TARGET_OR_TEST_SYSTEM | CLASS_ASSIGNMENT |
| --- | --- | --- |
| CC(C)N(C(=O)C1CCOCC1)c1cc(F)c(Oc2ncc(Cn3nccn3)cc2C(F)(F)F)cc1C(=O)O | HEK-293T | hi |
| COc1cc(C)c(S(=O)(=O)N(C)CCOCC(=O)N(C)[C@H]2CCC[C@@H](N3CCN(C)CC3)C2)c(C)c1.O=C(O)C(O)C(O)C(=O)O | HEK-293T | mid |

[in] Pick a category. Item: "CC[C@@]1(c2ccccc2)NC(=O)N(Cc2ccccc2)C1=O"
[out] hi

[in] Proceed to CCNc1ccc(-c2nn(-c3ccccc3C)c3c2C(C)Cc2nc(NC(=O)OC)sc2-3)cn1.O=C(O)C(F)(F)F (configuration not stated)
[out] lo

[in] Queued: "CC1CCN(C(=O)[C@H](CCn2cccc2C#N)NS(=O)(=O)c2cccc3[nH]ccc23)CC1"
[out] mid

[in] Follow-up item: CCCCc1oc2ccccc2c1C(=O)c1cc(I)c(OCCN(CC)CC)c(I)c1.Cl [AMIODARONE HYDROCHLORIDE]
[out] lo

[in] Now consider "CC(C)(O)c1coc(S(=O)(=O)NC(=O)Nc2c3c(cc4c2CCC4)CCC3)c1" .
[out] mid

[in] Field entry: "CC(C)c1cc(Br)c(NC(=O)Nc2cccnc2)c(Br)c1"
[out] hi

[in] Cool, now CCCCCCCCCCCCCC(=O)O[C@@H]1[C@@H](C)[C@@]2(O)[C@@H](C=C(CO)C[C@]3(O)C(=O)C(C)=C[C@@H]23)[C@@H]2C(C)(C)[C@]12OC(C)=O [PHORBOL MYRISTATE ACETATE]
[out] lo

[in] Try "NC1=NC(=O)/C(=C2\CCNC(=O)c3[nH]c4ccccc4c32)N1" next.
[out] mid

====

System: HEK-293T
ASSAY_EXPLANATION: Incucyte cell viability with HEK293T; further: unitless GR value; below 1 slowed growth and below 0 cell loss
Type: toxicity, cell-based
EXPERIMENTAL_PARAMETERS: human, 24 h, 10 µM, compound concentration 10 uM, replicate number 1
Recorded Growth Rate for the following molecules
// keep it numeric: no unit symbol after the value

Sample answers from the record:
| MOLECULE | Growth Rate |
| --- | --- |
| CC(C)(C#Cc1ccc(NC(=O)COc2ccccc2C(=O)c2ccccc2)c(Cl)c1)C(=O)O | 0.79 |
| COc1cc(C(N)=O)ccc1Nc1ncc2c(n1)N(CCC(C)C)[C@H](C)C(=O)N2C | 0.53 |
| C=CC(=O)N1CCC[C@@H](n2nc(-c3ccc(Oc4ccccc4)cc3)c3c(N)ncnc32)C1 | 0.51 |
| O=C(Nc1cccc(C(F)(F)F)c1)c1cc(Cl)ccc1O | -0.67 |

For the next question, use this molecule.
[in] Fill in: Growth Rate of "CC(C)(C)c1cc(C(C)(C)C)c(NC(=O)c2c[nH]c3ccccc3c2=O)cc1O" is ___
[out] 0.92
